As shown below, each of these compounds has a reported pIC50 value.
assay system: MYLK (UniProt Q15746)
Sequence (Q15746 whole entry): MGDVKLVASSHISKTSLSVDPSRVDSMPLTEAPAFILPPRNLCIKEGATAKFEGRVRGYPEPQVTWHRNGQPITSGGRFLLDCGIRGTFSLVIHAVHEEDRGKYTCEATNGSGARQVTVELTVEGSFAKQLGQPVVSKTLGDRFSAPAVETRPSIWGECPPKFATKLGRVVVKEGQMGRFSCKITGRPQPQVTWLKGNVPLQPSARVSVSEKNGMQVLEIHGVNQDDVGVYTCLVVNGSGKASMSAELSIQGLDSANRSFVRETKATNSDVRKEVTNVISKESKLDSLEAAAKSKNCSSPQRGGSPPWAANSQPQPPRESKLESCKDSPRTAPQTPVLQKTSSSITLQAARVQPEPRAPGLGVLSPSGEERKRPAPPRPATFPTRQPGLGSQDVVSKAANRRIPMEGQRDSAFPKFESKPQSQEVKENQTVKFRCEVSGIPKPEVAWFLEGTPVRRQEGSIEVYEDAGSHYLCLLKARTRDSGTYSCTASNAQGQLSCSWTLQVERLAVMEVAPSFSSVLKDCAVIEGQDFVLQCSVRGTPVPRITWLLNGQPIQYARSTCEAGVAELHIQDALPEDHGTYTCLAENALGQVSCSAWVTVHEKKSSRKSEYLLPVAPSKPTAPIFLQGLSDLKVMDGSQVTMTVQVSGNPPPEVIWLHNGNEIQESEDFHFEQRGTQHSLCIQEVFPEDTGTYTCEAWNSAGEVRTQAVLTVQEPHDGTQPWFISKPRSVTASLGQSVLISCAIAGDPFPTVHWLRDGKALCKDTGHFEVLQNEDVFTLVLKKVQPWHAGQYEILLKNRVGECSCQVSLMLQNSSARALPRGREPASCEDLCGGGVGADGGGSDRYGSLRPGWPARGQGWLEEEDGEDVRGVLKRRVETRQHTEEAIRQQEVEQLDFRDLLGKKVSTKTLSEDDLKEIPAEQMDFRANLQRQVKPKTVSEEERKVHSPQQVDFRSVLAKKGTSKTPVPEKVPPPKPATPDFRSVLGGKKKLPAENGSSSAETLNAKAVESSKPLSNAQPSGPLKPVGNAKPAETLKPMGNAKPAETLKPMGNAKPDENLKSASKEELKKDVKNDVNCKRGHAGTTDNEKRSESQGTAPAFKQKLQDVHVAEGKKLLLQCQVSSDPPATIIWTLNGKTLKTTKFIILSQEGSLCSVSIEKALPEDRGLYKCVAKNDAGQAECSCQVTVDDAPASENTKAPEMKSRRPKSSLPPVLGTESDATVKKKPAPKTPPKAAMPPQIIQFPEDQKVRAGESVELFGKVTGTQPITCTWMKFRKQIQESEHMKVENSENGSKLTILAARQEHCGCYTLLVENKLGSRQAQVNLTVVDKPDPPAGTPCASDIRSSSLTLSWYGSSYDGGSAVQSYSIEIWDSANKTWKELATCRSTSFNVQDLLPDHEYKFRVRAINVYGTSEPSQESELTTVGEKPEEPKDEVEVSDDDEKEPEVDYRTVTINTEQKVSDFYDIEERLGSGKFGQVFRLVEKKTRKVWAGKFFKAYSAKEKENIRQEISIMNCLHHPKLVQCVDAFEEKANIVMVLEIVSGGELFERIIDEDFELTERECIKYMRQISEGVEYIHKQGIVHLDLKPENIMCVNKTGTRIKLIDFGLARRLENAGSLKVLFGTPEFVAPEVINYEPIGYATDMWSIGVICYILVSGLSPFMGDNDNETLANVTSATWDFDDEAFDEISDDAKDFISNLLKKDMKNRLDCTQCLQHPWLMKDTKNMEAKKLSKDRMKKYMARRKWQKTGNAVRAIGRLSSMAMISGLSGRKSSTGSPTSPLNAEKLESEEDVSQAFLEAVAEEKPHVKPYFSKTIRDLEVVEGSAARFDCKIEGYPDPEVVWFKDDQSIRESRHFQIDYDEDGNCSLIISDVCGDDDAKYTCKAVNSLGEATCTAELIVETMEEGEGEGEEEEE
assay procedure: pIC50, kinobeads binding competition
assay setup: cell material: Lysate mix

compound: C#CCNC(=O)c1cc(Nc2cc(C3CC3)[nH]n2)nc(N2CCN(Cc3ccc(S(=O)(=O)F)cc3)CC2)n1
pIC50: < 4.52

The compound listed as CCNC(=O)c1cc(Nc2cc(C)[nH]n2)nc(N2CCN(Cc3ccc(S(=O)(=O)F)cc3)CC2)n1 shows pIC50 equal to < 4.52

The compound listed as C#CCNC(=O)c1cc(Nc2cc(C)[nH]n2)nc(N2CCN(Cc3ccc(S(=O)(=O)F)cc3)CC2)n1 shows pIC50 equal to < 4.52

The compound listed as CCNC(=O)c1cc(Nc2cc(C3CC3)[nH]n2)nc(N2CCN(Cc3ccc(S(=O)(=O)F)cc3)CC2)n1 shows pIC50 equal to < 4.52

The compound listed as O=C(NCCNC(=O)c1cc(Nc2cc(C3CC3)[nH]n2)nc(N2CCN(Cc3ccc(S(=O)(=O)F)cc3)CC2)n1)OC1CC/C=C/CCC1 (stereo unspecified) shows pIC50 equal to < 4.52

The compound listed as Cc1cc(Nc2cc(C(=O)NCCNC(=O)OC3CC/C=C/CCC3)nc(N3CCN(Cc4ccc(S(=O)(=O)F)cc4)CC3)n2)n[nH]1 (stereo unspecified) shows pIC50 equal to < 4.52
